assay: Half life in NMRI mouse at 20 mg/kg, iv; format: ADME, organism-based; design: dose 20 mg/kg, route intravenous; conditions: in vivo
Measurement Name: half-life (min)
Answers are plain numbers, in min.

Give its half-life value. Item: O=C(/C=C/c1cccnc1)NCCCCC1CCN(C(=O)c2ccccc2)CC1
24

====

assay: AUC in NMRI mouse at 20 mg/kg, iv; assay type: ADME, organism-based; set-up: dose 20 mg/kg, route intravenous; settings: plasma
Measurement Name: AUC (ng·h/mL)
Give bare numbers, in ng·h/mL.

Give its AUC value. Item: O=C(/C=C/c1cccnc1)NCCCCC1CCN(C(=O)c2ccccc2)CC1
12300

====

test: Clearance in NMRI mouse at 20 mg/kg, iv; type: ADME, organism-based; design: dose 20 mg/kg, route intravenous; settings: in vivo
Measurement Name: clearance
# number then unit; no other words

Give its clearance value. Item: O=C(/C=C/c1cccnc1)NCCCCC1CCN(C(=O)c2ccccc2)CC1
27 mL/min/kg

====

Answer each item with its documented half-life.
assay: Half life in NMRI mouse at 50 mg/kg, iv; assay type: ADME, organism-based; set-up: dose 50 mg/kg, route intravenous; conditions: in vivo
One number for each entry, in min.

The examples below pair each entry with its known result.
>>> measurement("O=C1C(=O)C(Nc2ccncc2)C1NCCCCCCS(=O)(=O)N(OCCN1CCOCC1)C1CCCCC1 (centres undefined)")
12.6
>>> measurement("O=C(NCCCCCCS(=O)(=O)N(OCCN1CCOCC1)C1CCCCC1)Nc1ccncc1")
27
>>> measurement("N#C/N=C(\\NCCCCCCS(=O)(=O)N(CCF)OCC1CCCCC1)Nc1ccncc1")
21.6

// next item, half-life requested
Give its half-life value. Item: N#CNC(=Nc1ccncc1)NCCCCCCS(=O)(=O)N(OCCN1CCOCC1)C1CCCCC1
10.8

====

molecular target: Nicotinamide phosphoribosyltransferase (Homo sapiens); test: Inhibition of NAMPT in human HepG2 cells using [14C]-nicotinamide/PRPP as substrate assessed as formation of [14C]-nicotinamide mononucleotide after 1 hr by liquid scintillation counting analysis
Sequence (P43490 whole entry): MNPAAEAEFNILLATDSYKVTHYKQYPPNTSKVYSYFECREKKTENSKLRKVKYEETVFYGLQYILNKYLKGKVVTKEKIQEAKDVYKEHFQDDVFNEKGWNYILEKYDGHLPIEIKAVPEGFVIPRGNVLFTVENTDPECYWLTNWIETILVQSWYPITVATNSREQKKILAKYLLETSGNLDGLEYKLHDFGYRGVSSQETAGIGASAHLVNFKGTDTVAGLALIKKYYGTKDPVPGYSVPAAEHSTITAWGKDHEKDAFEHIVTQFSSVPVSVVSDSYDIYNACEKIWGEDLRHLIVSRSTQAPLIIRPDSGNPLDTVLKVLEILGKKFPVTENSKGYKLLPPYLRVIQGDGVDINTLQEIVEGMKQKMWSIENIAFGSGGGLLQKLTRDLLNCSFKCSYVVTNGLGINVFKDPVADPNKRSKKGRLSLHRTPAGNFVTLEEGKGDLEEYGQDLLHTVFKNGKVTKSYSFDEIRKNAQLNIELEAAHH
Please use class 1 for IC50 under 4 nM and class 0 for everything else, ties included.

Solved cases (6 shown):
>>> cat("O=C(NCCCCCCS(=O)(=O)N(CCN1CCOCC1)CC1CCCCC1)NCc1cccnc1")
"class 0"
>>> cat("O=C1C(=O)C(Nc2ccncc2)C1NCCCCCS(=O)(=O)N(OCCN1CCOCC1)C1CCCCC1 (centres undefined)")
"class 0"
>>> cat("N#CNC(=Nc1ccncc1)NCCCCCCS(=O)(=O)NOCC1CCCCC1")
"class 1"
>>> cat("N#CNC(=Nc1ccncc1)NCCCCCCS(=O)(=O)N(OCCN1CCOCC1)C1CCCCC1")
"class 1"
>>> cat("O=C(NCCCCCCS(=O)(=O)N(CCN1CCOCC1)CC1CCCCC1)Nc1ccncc1")
"class 0"
>>> cat("O=C(CCCCCCNC(=S)NCc1cccnc1)N(OCCN1CCOCC1)C1CCCCC1")
"class 0"

I wonder whether N#CNC(=Nc1ccncc1)NCCCCCCC(=O)NOC1CCCCC1 has IC50 below 4 nM. Can you tell?
class 1

I wonder whether O=C(NCCCCCCS(=O)(=O)N(OCCN1CCOCC1)C1CCCCC1)Nc1ccncc1 has IC50 below 4 nM. Can you tell?
class 0

I wonder whether N#C/N=C(\NCCCCCCS(=O)(=O)N(CCF)OCC1CCCCC1)Nc1ccncc1 has IC50 below 4 nM. Can you tell?
class 1

I wonder whether N#C/N=C(\NCCCCCCC(=O)N(Cc1ccccc1)OC1CCCCC1)Nc1ccncc1 has IC50 below 4 nM. Can you tell?
class 0

I wonder whether N#C/N=C(\NCCCCCCS(=O)(=O)N(CCCN1CCOCC1)C1CCCCC1)Nc1ccncc1 has IC50 below 4 nM. Can you tell?
class 1

====

assay: Tmax in NMRI mouse at 50 mg/kg, iv; format: ADME, organism-based; set-up: dose 50 mg/kg, route intravenous; settings: in vivo
Measurement Name: Tmax (min)
Numbers only, in min.

The examples below pair each entry with its known result.
>>> measurement("N#C/N=C(\\NCCCCCCS(=O)(=O)N(CCF)OCC1CCCCC1)Nc1ccncc1")
4.8
>>> measurement("N#CNC(=Nc1ccncc1)NCCCCCCS(=O)(=O)N(OCCN1CCOCC1)C1CCCCC1")
4.8
>>> measurement("O=C(NCCCCCCS(=O)(=O)N(OCCN1CCOCC1)C1CCCCC1)Nc1ccncc1")
4.8

// next item, Tmax requested
Give its Tmax value. Item: O=C1C(=O)C(Nc2ccncc2)C1NCCCCCCS(=O)(=O)N(OCCN1CCOCC1)C1CCCCC1 (centres undefined)
4.98

====

assay: Cmax in NMRI mouse at 20 mg/kg, iv; type: ADME, organism-based; set-up: dose 20 mg/kg, route intravenous; details: in vivo
Measurement Name: Cmax
# number then unit; no other words

Give its Cmax value. Item: O=C(/C=C/c1cccnc1)NCCCCC1CCN(C(=O)c2ccccc2)CC1 [DAPORINAD]
14600 ng/mL

====

assay: Cmax in NMRI mouse at 50 mg/kg, iv; format: ADME, organism-based; parameters: dose 50 mg/kg, route intravenous; details: in vivo
Answer each item with its documented Cmax.
Numbers only, in ng/mL.

The examples below pair each entry with its known result.
>>> measurement("N#CNC(=Nc1ccncc1)NCCCCCCS(=O)(=O)N(OCCN1CCOCC1)C1CCCCC1")
14100
>>> measurement("O=C(NCCCCCCS(=O)(=O)N(OCCN1CCOCC1)C1CCCCC1)Nc1ccncc1")
14800
>>> measurement("N#C/N=C(\\NCCCCCCS(=O)(=O)N(CCF)OCC1CCCCC1)Nc1ccncc1")
78500

// next item, Cmax requested
Give its Cmax value. Item: O=C1C(=O)C(Nc2ccncc2)C1NCCCCCCS(=O)(=O)N(OCCN1CCOCC1)C1CCCCC1 (centres undefined)
33500

====

assay: Cytotoxicity against human NYH cells by clonogenic assay; type: functional, cell-based
Answer each item with its documented pIC50.
Numbers only, as −log10 of the molar value.

The examples below pair each entry with its known result.
>>> measurement("N#C/N=C(\\NCCCCCCS(=O)(=O)N(CCF)OCC1CCCCC1)Nc1ccncc1")
10.30
>>> measurement("N#C/N=C(\\NCCCCCCS(=O)(=O)N(OCCN1CCOCC1)C1CCCCC1)Nc1ccncc1")
9.52

Give its pIC50 value. Item: O=C(/C=C/c1cccnc1)NCCCCC1CCN(C(=O)c2ccccc2)CC1 [DAPORINAD]
8.82

====

Answer each item with its documented clearance.
assay: Clearance in NMRI mouse at 50 mg/kg, iv; type: ADME, organism-based; design: dose 50 mg/kg, route intravenous; conditions: in vivo
One number for each entry, in mL/min/kg.

The examples below pair each entry with its known result.
>>> measurement("N#CNC(=Nc1ccncc1)NCCCCCCS(=O)(=O)N(OCCN1CCOCC1)C1CCCCC1")
81.8
>>> measurement("O=C1C(=O)C(Nc2ccncc2)C1NCCCCCCS(=O)(=O)N(OCCN1CCOCC1)C1CCCCC1 (centres undefined)")
66.6
>>> measurement("N#C/N=C(\\NCCCCCCS(=O)(=O)N(CCF)OCC1CCCCC1)Nc1ccncc1")
17.5

// next item, clearance requested
Give its clearance value. Item: O=C(NCCCCCCS(=O)(=O)N(OCCN1CCOCC1)C1CCCCC1)Nc1ccncc1
118

====

test system: A2780; experiment: Cytotoxicity against human A2780 cells after 16 hrs by clonogenic assay; assay type: functional, cell-based; details: A2780, 16 h
Measurement Name: IC50 (nM)
Answers are plain numbers, in nM.

Item: N#C/N=C(\NCCCCCCS(=O)(=O)N(CCF)OCC1CCCCC1)Nc1ccncc1 Test system: A2780 Read-out: IC50 Value: ?
0.43

====

test: Toxicity in ip dosed NMRI mouse assessed as body weight loss administered as bid for 5 days; type: organism-based; conditions: in vivo
Answer each item with its documented MTD at 120 h.

>>> measurement("O=C(/C=C/c1cccnc1)NCCCCC1CCN(C(=O)c2ccccc2)CC1")
"< 10 mg/kg"
>>> measurement("O=C1C(=O)C(Nc2ccncc2)C1NCCCCCCS(=O)(=O)N(OCCN1CCOCC1)C1CCCCC1 (stereo not given)")
"< 10 mg/kg"
>>> measurement("O=C(NCCCCCCS(=O)(=O)N(OCCN1CCOCC1)C1CCCCC1)Nc1ccncc1")
"< 10 mg/kg"
>>> measurement("N#C/N=C(\\NCCCCCCS(=O)(=O)N(CCF)OCC1CCCCC1)Nc1ccncc1")
"< 10 mg/kg"

// next item, MTD at 120 h requested
Give its MTD at 120 h value. Item: N#CNC(=Nc1ccncc1)NCCCCCCS(=O)(=O)N(OCCN1CCOCC1)C1CCCCC1
< 10 mg/kg

====

assay: Apparent volume of distribution in NMRI mouse at 50 mg/kg, iv; assay type: ADME, organism-based; set-up: dose 50 mg/kg, route intravenous; settings: in vivo, read-out: Vz
Answer each item with its documented Vd.
Give bare numbers, in L/kg.

>>> measurement("N#C/N=C(\\NCCCCCCS(=O)(=O)N(CCF)OCC1CCCCC1)Nc1ccncc1")
0.547
>>> measurement("O=C(NCCCCCCS(=O)(=O)N(OCCN1CCOCC1)C1CCCCC1)Nc1ccncc1")
4.6
>>> measurement("N#CNC(=Nc1ccncc1)NCCCCCCS(=O)(=O)N(OCCN1CCOCC1)C1CCCCC1")
1.28

Give its Vd value. Item: O=C1C(=O)C(Nc2ccncc2)C1NCCCCCCS(=O)(=O)N(OCCN1CCOCC1)C1CCCCC1 (centres undefined)
1.2
